molecular target: Burosumab (wild type); test: indirect ELISA; details: chain shown with the change; level of the fitted curve at the highest mAb concentration, log [µg/mL] = 0.5; parent: est. 0.57; read off a plot
Sequence (chain, as listed by the source, chain 1 of 2): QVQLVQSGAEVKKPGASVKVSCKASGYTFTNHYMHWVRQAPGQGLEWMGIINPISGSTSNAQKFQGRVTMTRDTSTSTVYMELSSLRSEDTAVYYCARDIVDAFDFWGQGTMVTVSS
Sequence (chain, as listed by the source, chain 2 of 2): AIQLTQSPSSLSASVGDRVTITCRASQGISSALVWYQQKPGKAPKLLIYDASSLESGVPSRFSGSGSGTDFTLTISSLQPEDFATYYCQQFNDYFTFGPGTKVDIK
The following binders are listed with their measured response values.
Dear colleague, please return just the value in A450, with no unit written.

Solved entries (count: 5):
mouse FGF23 (wild type), Q9EPC2 A159S (protein) YPDTSPLLGSNWGSLTHLYTATARTSYHLQIHRDGHVDGTPHQTIYSALMITSEDAGSVVITGAMTRRFLCMDLHGNIFGSLHFSPENCKFRQWTLENGYDVYLSQKHHYLVSLGRAKRIFQPGTNPPPFSQFLSRRNEVPLLHFYTVRPRRHTR: 0.4
mouse FGF23 (wild type), Q9EPC2 Q117H; A159S (protein) YPDTSPLLGSNWGSLTHLYTATARTSYHLQIHRDGHVDGTPHQTIYSALMITSEDAGSVVITGAMTRRFLCMDLHGNIFGSLHFSPENCKFRHWTLENGYDVYLSQKHHYLVSLGRAKRIFQPGTNPPPFSQFLSRRNEVPLLHFYTVRPRRHTRSAEDPPERDPLNVLKPRPRATPVPVSCSRELPSAEEGGPAASDPLGVLRRGRGDARGGAGGADRCRPFPRFV: 0.8
mouse FGF23 (wild type), Q9EPC2 T76R (protein) YPDTSPLLGSNWGSLTHLYTATARTSYHLQIHRDGHVDGTPHQTIYSALMIRSEDAGSVVITGAMTRRFLCMDLHGNIFGSLHFSPENCKFRQWTLENGYDVYLSQKHHYLVSLGRAKRIFQPGTNPPPFSQFLARRNEVPLLHFYTVRPRRHTR: 0.78
mouse FGF23 (wild type), Q9EPC2 T49N; Q117H; A159S (protein) YPDTSPLLGSNWGSLTHLYTATARNSYHLQIHRDGHVDGTPHQTIYSALMITSEDAGSVVITGAMTRRFLCMDLHGNIFGSLHFSPENCKFRHWTLENGYDVYLSQKHHYLVSLGRAKRIFQPGTNPPPFSQFLSRRNEVPLLHFYTVRPRRHTRSAEDPPERDPLNVLKPRPRATPVPVSCSRELPSAEEGGPAASDPLGVLRRGRGDARGGAGGADRCRPFPRFV: 0.98
mouse FGF23 (wild type), Q9EPC2 Q117H (protein) YPDTSPLLGSNWGSLTHLYTATARTSYHLQIHRDGHVDGTPHQTIYSALMITSEDAGSVVITGAMTRRFLCMDLHGNIFGSLHFSPENCKFRHWTLENGYDVYLSQKHHYLVSLGRAKRIFQPGTNPPPFSQFLARRNEVPLLHFYTVRPRRHTR: 0.78

## Input Field request: response | item: mouse FGF23 (wild type), Q9EPC2 T49N; T76R; Q117H; A159S (protein) YPDTSPLLGSNWGSLTHLYTATARNSYHLQIHRDGHVDGTPHQTIYSALMIRSEDAGSVVITGAMTRRFLCMDLHGNIFGSLHFSPENCKFRHWTLENGYDVYLSQKHHYLVSLGRAKRIFQPGTNPPPFSQFLSRRNEVPLLHFYTVRPRRHTRSAEDPPERDPLNVLKPRPRATPVPVSCSRELPSAEEGGPAASDPLGVLRRGRGDARGGAGGADRCRPFPRFV
## Output 0.9

## Input Field request: response | item: mouse FGF23 (wild type), Q9EPC2 T49N (protein) YPDTSPLLGSNWGSLTHLYTATARNSYHLQIHRDGHVDGTPHQTIYSALMITSEDAGSVVITGAMTRRFLCMDLHGNIFGSLHFSPENCKFRQWTLENGYDVYLSQKHHYLVSLGRAKRIFQPGTNPPPFSQFLARRNEVPLLHFYTVRPRRHTR
## Output 0.59
